# Measured On: SARS-CoV-2 S protein trimer (SARS-CoV-2, UniProt P0DTC2 16-1213)
# Measurement Notes: column Fc/S-T (format not explained)
Observable: Kd (nM)
One number for each entry, in nM.

Query :: GET /values?readout=Kd&item= 1-12 (antibody, V domains shown) VH: EVQLLESGGGLVQPGGSLRLSCAASGITFSSYAMSWVRQAPGKGLEWVSGISGSGGSTYYADSVKGRFTISRDNSKNTLYLQMNSLRAEDTAVYYCAKHGSGTIFGVVIAKYYFDYWGQGTLVTVSS VL: QSALTQPASVSGSPGQSITISCTGTSSDVGHYNLVSWYQQHPGKAPKLMIYEGTKRPSGVSNRFSGSKSGNTASLTISGLQAEDEADYYCCSYAGSSSFVVFGGGTKLTVL
Result :: 14
